- ASSAYED_SYSTEM: T1, human G-CSF receptor (human, UniProt Q99062 25-836)
- T1 sequence (looked up): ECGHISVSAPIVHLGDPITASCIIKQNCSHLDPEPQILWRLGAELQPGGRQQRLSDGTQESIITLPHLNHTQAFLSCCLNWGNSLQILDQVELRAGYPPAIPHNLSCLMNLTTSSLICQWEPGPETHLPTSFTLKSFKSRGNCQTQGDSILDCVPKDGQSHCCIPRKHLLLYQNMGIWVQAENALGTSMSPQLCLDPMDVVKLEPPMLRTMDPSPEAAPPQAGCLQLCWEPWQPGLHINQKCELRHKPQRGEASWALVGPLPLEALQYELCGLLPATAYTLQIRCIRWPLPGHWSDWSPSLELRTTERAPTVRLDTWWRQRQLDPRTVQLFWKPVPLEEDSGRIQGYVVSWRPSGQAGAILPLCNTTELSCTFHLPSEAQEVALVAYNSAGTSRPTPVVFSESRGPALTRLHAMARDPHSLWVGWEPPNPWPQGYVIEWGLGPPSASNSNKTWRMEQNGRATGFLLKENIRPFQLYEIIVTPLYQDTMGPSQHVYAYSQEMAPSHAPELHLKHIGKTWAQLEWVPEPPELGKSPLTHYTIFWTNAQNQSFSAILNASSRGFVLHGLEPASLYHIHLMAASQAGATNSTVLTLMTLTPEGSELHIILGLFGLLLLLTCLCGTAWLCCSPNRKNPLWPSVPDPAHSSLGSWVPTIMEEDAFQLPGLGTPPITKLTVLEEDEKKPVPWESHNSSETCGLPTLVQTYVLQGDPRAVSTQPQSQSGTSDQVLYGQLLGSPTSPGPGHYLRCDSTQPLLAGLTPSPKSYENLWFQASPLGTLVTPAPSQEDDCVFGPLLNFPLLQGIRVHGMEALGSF
- PROCEDURE_TEXT: cell-based or functional assay
REPORTED_METRIC: EC50 (% of hG-CSF) non-conjugated

G-CSF variant K16/34/40R Q120K T133K, non-conjugated (ligand) TPLGPASSLPQSFLLRCLEQVRKIQGDGAALQERLCATYRLCHPEELVLLGHSLGIPWAPLSSCPSQALQLAGCLSQLHSGLFLYQGLLQALEGISPELGPTLDTLQLDVADFATTIWQKMEELGMAPALQPKQGAMPAFASAFQRRAGGVLVASHLQSFLEVSYRVLRHLAQP ... 20 % of hG-CSF
G-CSF variant K16/34/40R T105K S159K, non-conjugated (ligand) TPLGPASSLPQSFLLRCLEQVRKIQGDGAALQERLCATYRLCHPEELVLLGHSLGIPWAPLSSCPSQALQLAGCLSQLHSGLFLYQGLLQALEGISPELGPTLDKLQLDVADFATTIWQQMEELGMAPALQPTQGAMPAFASAFQRRAGGVLVASHLQKFLEVSYRVLRHLAQP ... 40 % of hG-CSF

INPUT: EC50 (% of hG-CSF) non-conjugated for G-CSF variant 40R, non-conjugated (ligand) TPLGPASSLPQSFLLKCLEQVRKIQGDGAALQEKLCATYRLCHPEELVLLGHSLGIPWAPLSSCPSQALQLAGCLSQLHSGLFLYQGLLQALEGISPELGPTLDTLQLDVADFATTIWQQMEELGMAPALQPTQGAMPAFASAFQRRAGGVLVASHLQSFLEVSYRVLRHLAQP ?
OUTPUT: 50 % of hG-CSF
